Recorded growth inhibition values for a group of compounds are listed next.
experiment: NCI Yeast Anticancer Drug Screen. Data for the cln2 rad14 strain (AID 165);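 note: 0% = growth equal to vehicle treated cultures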; settings: S. cerevisiae cln2 rad14 strain, at 50.0 µM (retest, dose inferred, filed as 5.0), stronger effect = higher value
The panel holds about 79,000 compounds, 15% with a hit somewhere; the sample as a whole holds those more often.
Give the value in % but do not write % after it.

Consider the following illustrative entries.
compound	measure.unit	growth inhibition
O=C(Nc1c(Cl)cccc1Cl)OCc1ccc2c(c1)OCO2	%	43
COC(=O)c1ccc(C)cc1CC1Cc2cc(C)ccc2C1=O (centres undefined)	%	53
N#C/C(=C1/C(=O)c2ccccc2-c2ccccc21)c1ccccc1	%	97
C=CCCCCO/N=C/c1c2c(O)c3c(O)c(C)c4c(c3c1O)C(=O)C(C)(O/C=C/C(OC)C(C)C(OC(C)=O)C(C)C(O)C(C)C(O)C(C)/C=C/C=C(\C)C(=O)N2)O4 (centres undefined)	%	91
Nc1ccc2c(SCc3ccc([N+](=O)[O-])cc3)c3ccccc3nc2c1	%	93
CC1(C)OC2OC(/C=C/[N+](=O)[O-])C3OC(C)(C)OC3C2O1 (centres undefined)	%	99
C[C@]12CC[C@@H]3c4cc(OCC(F)(F)F)c(O)cc4CC[C@H]3[C@@H]1CC[C@@H]2O	%	97
CCOC(=O)c1ccc(NC(=O)CCl)cc1	%	91

Below: the item to evaluate.
*Q* Quick one: give measured growth inhibition for O=C1OC2=C(CCc3nc(-c4ccccc4)sc32)C(N(c2ccccc2)c2ccccc2)C1(Cl)Cl (centres undefined)
*A* -15

###

Entries and their measured growth inhibition follow.
experiment: NCI Yeast Anticancer Drug Screen. Data for the bub3 strain (AID 167); conditions: S. cerevisiae bub3 mutant strain, at 50.0 µM, stronger effect = higher value
Compounds without any hit were thinned out: in the full panel of roughly 79,000, 15% have a hit.
Lab book: enter the figure in %, no units written.

Recorded growth inhibition, per entry:
molecule	growth inhibition (%)
CCCCCCc1ccc(O)c(Cl)c1	57.4
O=[N+]([O-])C1CCC(C2=CSC3CCCCC3N2)CC1 (stereo unspecified)	67.8
CC(=O)Nc1ccc(S(=O)(=O)N/N=C/c2cc(I)cc([N+](=O)[O-])c2O)cc1	70.5
COc1ccc(/C=C2\CN(C)C/C(=C\c3ccc(OC)c(OC)c3OC)C2=O)c(OC)c1OC	95.8

*Q* Supply growth inhibition value. Item: CC(=O)OC1SC(C)(C)n2c1nc1ccccc1c2=O (stereo unspecified)
*A* 18.8

*Q* Quickly give me recorded growth inhibition for O=C(O)CC1c2ccc3ccccc3c2CCC1c1ccccc1 (stereo unspecified)
*A* 99.5

###

assay: NCI Yeast Anticancer Drug Screen. Data for the rad50 strain (AID 155);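 note: 0% = growth of vehicle-only cultures of the same strain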; conditions: S. cerevisiae rad50 strain growth inhibition; at 50.0 µM (retest, dose inferred, filed as 5.0); stronger effect = higher value
Compounds without any hit were thinned out: in the full panel of roughly 79,000, 15% have a hit.
assay.metric: growth inhibition (%)
Number only, in %; omit the unit.

Example cases with answers are listed next.
compound	measure.unit	recorded.result
CCC(=O)c1cc2ccccc2c2ccccc12	%	44
FC(F)(F)c1[nH]nc(-c2ccc(Cl)cc2)c1N=NN1CCOCC1	%	96
CCOC(=O)/C(=C/O)c1c[nH]c2ccccc12	%	94
CCn1c(O)c(C=Nc2ccccc2)s/c1=N/Nc1nc(-c2ccc(O)c(O)c2)cs1	%	21
ClCc1nc2ccccc2c2ccccc12	%	50
CCOC(=O)c1cc(C)c(O)c(C(=O)OCC)c1	%	4
Cc1cc(NCCCCCCCCCC[n+]2c(C)cc(N)c3ccccc32)c2ccccc2n1	%	99
Cc1cn(C2OC(CO)C(O)C(O)C2N)c(=O)[nH]c1=O (stereo unspecified)	%	-2

*Q* Output growth inhibition of O=C1c2cc([N+](=O)[O-])ccc2-c2cc([N+](=O)[O-])ccc21
*A* 32

*Q* Fill in growth inhibition for record CCOC(=O)C(CC)(CCc1ccccc1[N+](=O)[O-])C(=O)OCC
*A* -24

*Q* Given the compound ClC(Cl)(Cl)C1OCOC(C(Cl)(Cl)Cl)O1 (stereo unspecified) , write its reported growth inhibition.
*A* 98
